Numbers sourced from ChEMBL document CHEMBL3769365.

Target: dCTP pyrophosphatase 1 (Homo sapiens)
Sequence (Q9H773 whole entry): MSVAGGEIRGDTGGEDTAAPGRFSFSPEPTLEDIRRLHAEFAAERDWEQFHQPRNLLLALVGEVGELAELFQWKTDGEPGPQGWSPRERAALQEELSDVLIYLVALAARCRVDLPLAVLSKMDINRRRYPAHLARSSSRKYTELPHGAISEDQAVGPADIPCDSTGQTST
Test: Inhibition of human recombinant full length dCTPase expressed in Escherichia coli BL21(DE3)pLysS using dCTP as substrate after 1 hr by HTS-adapted Malachite Green assay
pIC50: −log10 of the molar value.
value kind: pIC50

Cc1nc2c([N+](=O)[O-])c(Cl)c(Cl)cc2n1Cc1ccc(-n2cccn2)cc1
7.12
Cc1nc2c([N+](=O)[O-])c(Cl)c(Cl)cc2n1C(=O)c1ccccc1
7.02
COc1ccc(Cn2c(C)nc3cc(C)c(C)cc32)cc1
4.66
Cc1nc2c([N+](=O)[O-])c(Cl)c(Cl)cc2n1Cc1ccc(O)cc1
7.68
Cc1nc2c([N+](=O)[O-])c(Cl)c(Cl)cc2n1Cc1ccc(-n2cccc2)cc1
6.48

[1] Cc1nc2c([N+](=O)[O-])c(Cl)c(Cl)cc2n1Cc1ccccc1B(O)O
[2] CC(=O)Oc1ccc(Cn2c(C)nc3c([N+](=O)[O-])c(Cl)c(Cl)cc32)cc1
[3] COc1ccc(Cn2c(C)nc3cc(Cl)c(Cl)cc32)cc1
Arrange these 3 compounds in increasing order of pIC50. List the labels according to the requested ordering. 3, 1, 2

###

Experiment: Half life in mouse liver microsomes
Assay type: ADME
value kind: t1/2 (min)

Cc1nc2c([N+](=O)[O-])c(Cl)c(Cl)cc2n1Cc1ccc(B(O)O)cc1
197
Cc1n[nH]c(C)c1CCn1c(C)nc2c([N+](=O)[O-])c(Cl)c(Cl)cc21
7
O=[N+]([O-])c1c(Cl)c(Cl)cc2c1nc(C1CC1)n2Cc1ccc(B(O)O)cc1
13

[A] Cc1nc2c([N+](=O)[O-])c(Cl)c(Cl)cc2n1Cc1ccc(-n2cccn2)cc1
[B] COc1ccc(Cn2c(C)nc3c([N+](=O)[O-])c(Cl)c(Cl)cc32)cc1
So which one has the bigger t1/2 here, A or B ? Response format: the label of the selected entry. A

###

Target: Cytochrome P450 2C9 (Homo sapiens)
Sequence (P11712 whole entry): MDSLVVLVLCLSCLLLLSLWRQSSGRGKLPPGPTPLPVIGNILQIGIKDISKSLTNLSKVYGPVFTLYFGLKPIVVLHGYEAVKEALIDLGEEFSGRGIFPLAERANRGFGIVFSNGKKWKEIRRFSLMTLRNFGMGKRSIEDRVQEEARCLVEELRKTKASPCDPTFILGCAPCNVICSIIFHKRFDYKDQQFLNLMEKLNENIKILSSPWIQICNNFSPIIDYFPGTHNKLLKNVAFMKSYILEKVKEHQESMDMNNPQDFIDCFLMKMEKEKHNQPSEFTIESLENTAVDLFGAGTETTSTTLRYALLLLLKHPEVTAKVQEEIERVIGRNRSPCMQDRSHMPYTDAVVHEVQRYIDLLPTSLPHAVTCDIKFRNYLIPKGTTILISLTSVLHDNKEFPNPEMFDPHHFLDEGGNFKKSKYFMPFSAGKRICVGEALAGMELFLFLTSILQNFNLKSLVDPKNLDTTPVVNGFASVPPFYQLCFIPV
value kind: IC50 (µM)
Report only the number, with the unit µM understood.

Query for Cytochrome P450 2C9 (Homo sapiens): what IC50 does the record show for Cc1nc2c([N+](=O)[O-])c(Cl)c(Cl)cc2n1Cc1ccc(B2OC(=O)CN(C)CC(=O)O2)cc1 ? 1.72

###

Tested on: Liver microsome
Test: Half life in human liver microsomes
Assay type: ADME
value kind: t1/2 (min)

Worked examples follow.
Cc1nc2c([N+](=O)[O-])c(Cl)c(Cl)cc2n1Cc1ccc(-n2cccn2)cc1
38
Cc1nc2c([N+](=O)[O-])c(Cl)c(Cl)cc2n1Cc1ccc(B2OC(=O)CN(C)CC(=O)O2)cc1
11

[1] COc1ccc(Cn2c(C)nc3c([N+](=O)[O-])c(Cl)c(Cl)cc32)cc1
[2] Cc1n[nH]c(C)c1CCn1c(C)nc2c([N+](=O)[O-])c(Cl)c(Cl)cc21
[3] O=[N+]([O-])c1c(Cl)c(Cl)cc2c1nc(C1CC1)n2Cc1ccc(B(O)O)cc1
[4] Cc1nc2c([N+](=O)[O-])c(Cl)c(Cl)cc2n1Cc1ccc(B(O)O)cc1
Sort by t1/2, descending. Write the labels in rank order as requested. 3, 4, 1, 2
(3: 268 min, 4: 72 min, 1: 30 min, 2: 6 min)
